assay: Dog PK study #2 (Compound A IV, HPBCD formulation); format: in vivo, beagle dogs; details: beagle, dog, plasma, iv, 1 mg/kg, IV 1 mg/kg, HPBCD formulation; individual animals

| smiles-input | value-unit | half-life |
| --- | --- | --- |
| Cn1cc(-c2ccccc2)c(-c2cn(C)c(=O)c3[nH]c(-c4cnn(C(F)(F)F)c4)cc23)cc1=O | h | 7.11 |

###

assay: Rat PK study #4 (Compound A PO 0.2 and 1.0 mg/kg, propylene glycol formulation); type: in vivo, Lewis rats; conditions: male, Lewis, rat, plasma, po, 0.2 mg/kg, 0.2 mg/kg PO, propylene glycol-based formulation; individual animals; read-out: Cmax
measurement-type: Cmax

| smiles-input | measurement-type | reading |
| --- | --- | --- |
| Cn1cc(-c2ccccc2)c(-c2cn(C)c(=O)c3[nH]c(-c4cnn(C(F)(F)F)c4)cc23)cc1=O | Cmax | 7.99 ng/mL |
